Entries and their measured pIC50 follow.
subjectOfTest: AKT2 (Homo sapiens, UniProt P31751)
Sequence (P31751 whole entry, canonical isoform): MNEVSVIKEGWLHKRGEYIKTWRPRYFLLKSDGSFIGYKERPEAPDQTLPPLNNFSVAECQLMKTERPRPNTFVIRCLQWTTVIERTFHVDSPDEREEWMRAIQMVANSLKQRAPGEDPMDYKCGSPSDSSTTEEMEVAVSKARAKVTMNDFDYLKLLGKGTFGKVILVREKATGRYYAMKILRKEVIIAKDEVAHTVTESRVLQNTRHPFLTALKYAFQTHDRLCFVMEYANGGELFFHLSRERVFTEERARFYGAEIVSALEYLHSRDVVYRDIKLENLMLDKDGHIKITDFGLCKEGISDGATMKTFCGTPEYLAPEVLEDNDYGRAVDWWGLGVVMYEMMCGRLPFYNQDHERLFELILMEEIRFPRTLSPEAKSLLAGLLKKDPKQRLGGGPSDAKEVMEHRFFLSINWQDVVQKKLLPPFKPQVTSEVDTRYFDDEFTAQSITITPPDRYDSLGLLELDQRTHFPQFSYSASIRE
method: AKT Kinase Assay (IMAP fluorescent polarisation), AKT2 isoform
cond: activated AKT2, FAM Crosstide substrate
pIC50: −log10 of the molar value. Structures can show the parent of a compound that is named as a salt.

Exercise: Checklist item: pIC50 tested on AKT2 (Homo sapiens, UniProt P31751), entry `C[C@]1(O)C[C@](N)(c2ccc(-c3oc4ncn(CC(F)(F)F)c(=O)c4c3-c3ccccc3)cc2)C1` , value?
Solution: ≥ 7.70

Exercise: Checklist item: pIC50 tested on AKT2 (Homo sapiens, UniProt P31751), entry N[C@]1(c2ccc(-c3oc4ncn(CC(F)(F)F)c(=O)c4c3-c3ccccc3)cc2)C[C@@H](O)C1 [Compound 2, HCl] , value?
Solution: ≥ 7.70

Exercise: Checklist item: pIC50 tested on AKT2 (Homo sapiens, UniProt P31751), entry `C[C@]1(O)C[C@@](N)(c2ccc(-c3oc4ncn(CC(F)(F)F)c(=O)c4c3-c3ccccn3)cc2)C1` , value?
Solution: < 7.00

Exercise: Checklist item: pIC50 tested on AKT2 (Homo sapiens, UniProt P31751), entry `Cn1c(-c2ccc([C@]3(N)C[C@](C)(O)C3)cc2)c(-c2ccccc2)c2c(=O)n(CC(F)(F)F)cnc21` , value?
Solution: ≥ 7.70

Exercise: Checklist item: pIC50 tested on AKT2 (Homo sapiens, UniProt P31751), entry `C[C@]1(O)C[C@](N)(c2ccc(-c3sc4ncn(CC(F)(F)F)c(=O)c4c3-c3ccccc3)cc2)C1` , value?
Solution: 7.00 to 7.70

Exercise: Checklist item: pIC50 tested on AKT2 (Homo sapiens, UniProt P31751), entry `Cn1c(-c2ccc([C@]3(N)C[C@@](C)(O)C3)cc2)c(-c2ccccc2)c2c(=O)n(CC(F)(F)F)cnc21` , value?
Solution: ≥ 7.70

Exercise: Checklist item: pIC50 tested on AKT2 (Homo sapiens, UniProt P31751), entry `C[C@]1(O)C[C@@](N)(c2ccc(-c3sc4ncn(CC(F)(F)F)c(=O)c4c3-c3ccccn3)cc2)C1` , value?
Solution: < 7.00

====

subjectOfTest: AKT3 (Homo sapiens, UniProt Q9Y243)
Sequence (Q9Y243 whole entry, canonical isoform): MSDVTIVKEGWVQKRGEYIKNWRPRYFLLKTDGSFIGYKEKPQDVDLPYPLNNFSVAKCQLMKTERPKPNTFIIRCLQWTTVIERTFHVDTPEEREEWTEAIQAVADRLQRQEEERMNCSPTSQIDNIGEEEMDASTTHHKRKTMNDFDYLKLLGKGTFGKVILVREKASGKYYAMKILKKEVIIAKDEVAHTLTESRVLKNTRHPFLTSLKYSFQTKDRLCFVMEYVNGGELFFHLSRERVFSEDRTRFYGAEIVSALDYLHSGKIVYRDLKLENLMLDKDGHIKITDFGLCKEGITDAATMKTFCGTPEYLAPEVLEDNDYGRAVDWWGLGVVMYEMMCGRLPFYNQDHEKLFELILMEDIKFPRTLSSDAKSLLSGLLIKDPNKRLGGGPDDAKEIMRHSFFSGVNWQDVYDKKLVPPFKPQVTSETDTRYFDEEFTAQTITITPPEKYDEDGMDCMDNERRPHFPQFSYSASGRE
method: AKT Kinase Assay (IMAP fluorescent polarisation), AKT3 isoform
cond: activated AKT3, FAM Crosstide substrate
Structures can show the parent of a compound that is named as a salt.
Entries and their measured IC50 follow.

Example entries and their recorded answers appear below.
compound: NC1(c2ccc(-c3oc4ncn(CC(F)(F)F)c(=O)c4c3-c3ccccc3)cc2)CCC1 [Compound A, reference compound]
readout: IC50
result: > 6 µM
//
compound: Cn1c(-c2ccc([C@]3(N)C[C@H](O)C3)cc2)c(-c2ccccc2)c2c(=O)n(CC(F)(F)F)cnc21
readout: IC50
result: > 6 µM
//
compound: N[C@]1(c2ccc(-c3sc4ncn(CC(F)(F)F)c(=O)c4c3-c3ccccc3)cc2)C[C@H](O)C1
readout: IC50
result: 1 to 6 µM
//
compound: Cn1c(-c2ccc(C3(N)CCC3)cc2)c(-c2ccccc2)c2c(=O)n(CC(F)(F)F)cnc21 [Compound L, reference compound]
readout: IC50
result: > 6 µM
//
compound: Cn1c(-c2ccc([C@]3(N)C[C@@](C)(O)C3)cc2)c(-c2ccccc2)c2c(=O)n(CC(F)(F)F)cnc21
readout: IC50
result: 1 to 6 µM

Exercise: // returns reported IC50 for input `C[C@]1(O)C[C@@](N)(c2ccc(-c3sc4ncn(CC(F)(F)F)c(=O)c4c3-c3ccccn3)cc2)C1`
Solution: > 6 µM

Exercise: // returns reported IC50 for input `C[C@]1(O)C[C@@](N)(c2ccc(-c3oc4ncn(CC(F)(F)F)c(=O)c4c3-c3ccncc3)cc2)C1`
Solution: > 6 µM

Exercise: // returns reported IC50 for input N[C@]1(c2ccc(-c3oc4ncn(CC(F)(F)F)c(=O)c4c3-c3ccccc3)cc2)C[C@@H](O)C1 [Compound 2, HCl]
Solution: > 6 µM

Exercise: // returns reported IC50 for input `Cn1c(-c2ccc([C@]3(N)C[C@](C)(O)C3)cc2)c(-c2cccnc2)c2c(=O)n(CC(F)(F)F)cnc21`
Solution: > 6 µM

Exercise: // returns reported IC50 for input `Cn1c(-c2ccc([C@]3(N)C[C@](C)(O)C3)cc2)c(-c2ccccn2)c2c(=O)n(CC(F)(F)F)cnc21`
Solution: > 6 µM

Exercise: // returns reported IC50 for input NC1(c2ccc(-c3sc4ncn(CC(F)(F)F)c(=O)c4c3-c3ccccc3)cc2)CCC1 [Compound F, reference compound]
Solution: > 6 µM

Exercise: // returns reported IC50 for input `C[C@]1(O)C[C@](N)(c2ccc(-c3oc4ncn(CC(F)(F)F)c(=O)c4c3-c3ccccc3)cc2)C1`
Solution: 1 to 6 µM

Exercise: // returns reported IC50 for input `N[C@]1(c2ccc(-c3sc4ncn(CC(F)(F)F)c(=O)c4c3-c3ccccc3)cc2)C[C@@H](O)C1`
Solution: 1 to 6 µM

Exercise: // returns reported IC50 for input `N[C@]1(c2ccc(-c3oc4ncn(CC(F)(F)F)c(=O)c4c3-c3ccccc3)cc2)C[C@H](O)C1`
Solution: 1 to 6 µM

Exercise: // returns reported IC50 for input `C[C@]1(O)C[C@@](N)(c2ccc(-c3oc4ncn(CC(F)(F)F)c(=O)c4c3-c3ccccc3)cc2)C1`
Solution: ≤ 1 µM

Exercise: // returns reported IC50 for input `Cn1c(-c2ccc([C@]3(N)C[C@](C)(O)C3)cc2)c(-c2ccncc2)c2c(=O)n(CC(F)(F)F)cnc21`
Solution: > 6 µM

Exercise: // returns reported IC50 for input `C[C@]1(O)C[C@@](N)(c2ccc(-c3oc4ncn(CC(F)(F)F)c(=O)c4c3-c3ccccn3)cc2)C1`
Solution: > 6 µM

Exercise: // returns reported IC50 for input `C[C@]1(O)C[C@](N)(c2ccc(-c3sc4ncn(CC(F)(F)F)c(=O)c4c3-c3ccccc3)cc2)C1`
Solution: 1 to 6 µM

Exercise: // returns reported IC50 for input `Cn1c(-c2ccc([C@]3(N)C[C@@](C)(O)C3)cc2)c(-c2ccccn2)c2c(=O)n(CC(F)(F)F)cnc21`
Solution: > 6 µM

Exercise: // returns reported IC50 for input `C[C@]1(O)C[C@@](N)(c2ccc(-c3sc4ncn(CC(F)(F)F)c(=O)c4c3-c3ccccc3)cc2)C1`
Solution: 1 to 6 µM

Exercise: // returns reported IC50 for input `C[C@]1(O)C[C@](N)(c2ccc(-c3sc4ncn(CC(F)(F)F)c(=O)c4c3-c3ccccn3)cc2)C1`
Solution: > 6 µM

Exercise: // returns reported IC50 for input `Cn1c(-c2ccc([C@]3(N)C[C@@H](O)C3)cc2)c(-c2ccccc2)c2c(=O)n(CC(F)(F)F)cnc21`
Solution: 1 to 6 µM

Exercise: // returns reported IC50 for input `Cn1c(-c2ccc([C@]3(N)C[C@](C)(O)C3)cc2)c(-c2ccccc2)c2c(=O)n(CC(F)(F)F)cnc21`
Solution: 1 to 6 µM

====

Entries and their measured fraction unbound follow.
method: Plasma protein binding (fraction unbound, human plasma)
Assay type: in vitro ADME

Example entries and their recorded answers appear below.
molecule: C[C@]1(O)C[C@@](N)(c2ccc(-c3sc4ncn(CC(F)(F)F)c(=O)c4c3-c3ccccc3)cc2)C1 [Compound 5]
fraction unbound: 0.02 to 0.05

molecule: C[C@]1(O)C[C@](N)(c2ccc(-c3oc4ncn(CC(F)(F)F)c(=O)c4c3-c3ccccc3)cc2)C1 [Compound 1]
fraction unbound: ≥ 0.05

molecule: Cn1c(-c2ccc([C@]3(N)C[C@](C)(O)C3)cc2)c(-c2ccccc2)c2c(=O)n(CC(F)(F)F)cnc21 [Compound 6]
fraction unbound: 0.02 to 0.05

Exercise: // returns reported fraction unbound for input NC1(c2ccc(-c3oc4ncn(CC(F)(F)F)c(=O)c4c3-c3ccccc3)cc2)CCC1 [Compound A, reference compound]
Solution: ≤ 0.02

====

subjectOfTest: AKT1 (Homo sapiens, UniProt P31749)
Construct: purchased SignalChem
Sequence (P31749 whole entry): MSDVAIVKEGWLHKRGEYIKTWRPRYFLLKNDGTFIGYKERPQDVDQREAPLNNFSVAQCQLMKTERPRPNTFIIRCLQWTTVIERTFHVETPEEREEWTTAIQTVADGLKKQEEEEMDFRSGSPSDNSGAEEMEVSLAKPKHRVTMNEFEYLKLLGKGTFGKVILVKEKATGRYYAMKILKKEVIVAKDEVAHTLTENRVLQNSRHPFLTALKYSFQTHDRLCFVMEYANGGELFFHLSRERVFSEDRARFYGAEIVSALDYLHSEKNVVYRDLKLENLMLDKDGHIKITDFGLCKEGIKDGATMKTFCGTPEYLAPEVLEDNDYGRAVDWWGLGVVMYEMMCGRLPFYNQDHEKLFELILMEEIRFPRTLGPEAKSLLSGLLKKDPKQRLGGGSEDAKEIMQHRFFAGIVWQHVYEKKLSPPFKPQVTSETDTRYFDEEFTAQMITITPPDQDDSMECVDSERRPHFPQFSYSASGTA
method: AKT Kinase Assay (IMAP fluorescent polarisation), AKT1 isoform
Format: biochemical
cond: activated AKT1, FAM Crosstide substrate
Structures can show the parent of a compound that is named as a salt.
readout: IC50

Example entries and their recorded answers appear below.
compound: N[C@]1(c2ccc(-c3sc4ncn(CC(F)(F)F)c(=O)c4c3-c3ccccc3)cc2)C[C@@H](O)C1 [Compound 12]
IC50: 300 to 1500 nM

compound: C[C@]1(O)C[C@@](N)(c2ccc(-c3oc4ncn(CC(F)(F)F)c(=O)c4c3-c3ccncc3)cc2)C1 [Compound 13]
IC50: > 1500 nM

compound: N[C@]1(c2ccc(-c3oc4ncn(CC(F)(F)F)c(=O)c4c3-c3ccccc3)cc2)C[C@@H](O)C1 [Compound 2, HCl]
IC50: > 1500 nM

compound: N[C@]1(c2ccc(-c3oc4ncn(CC(F)(F)F)c(=O)c4c3-c3ccccc3)cc2)C[C@H](O)C1 [Compound 3]
IC50: 300 to 1500 nM

compound: Cn1c(-c2ccc([C@]3(N)C[C@H](O)C3)cc2)c(-c2ccccc2)c2c(=O)n(CC(F)(F)F)cnc21 [Compound 11]
IC50: > 1500 nM

Exercise: // returns reported IC50 for input C[C@]1(O)C[C@@](N)(c2ccc(-c3sc4ncn(CC(F)(F)F)c(=O)c4c3-c3ccccn3)cc2)C1 [Compound 20]
Solution: > 1500 nM

Exercise: // returns reported IC50 for input C[C@]1(O)C[C@](N)(c2ccc(-c3oc4ncn(CC(F)(F)F)c(=O)c4c3-c3ccccc3)cc2)C1 [Compound 1]
Solution: 300 to 1500 nM
